- Measurement Description: chemical genetic growth profiling, strain panel (AID 1159580);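 note: tested at 20 µM; growth read once vehicle control cultures reached saturation at 30 °C; 1 = growth at the plate median or of vehicle wells; lower values mean less growth of the strain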
- Condition Set: S. cerevisiae deletion strains, growth OD, locus YJL187C, strain SWE1, active compounds read low
About 2,000 (36%) of roughly 5,500 compounds were called active. Not shown: some 18% with an inconclusive outcome. Some of the results follow.
For each entry below, report its normalized growth value.
Answers are plain numbers.

The examples below pair each entry with its known result.
[[record]]
structure_string = "Cc1nn(C)c(C)c1NS(=O)(=O)c1cc(Cl)sc1Cl"
endpoint_value = 1.02

[[record]]
structure_string = "O=C1C(O)=C(O)C(=O)C(O)=C1O"
endpoint_value = 1.01

[[record]]
structure_string = "O=C(O/N=C\\c1ccc2c(c1)OCO2)c1ccccc1Br"
endpoint_value = 0.964

[[record]]
structure_string = "O=C(O)c1ccc(N=Cc2ccc3c(c2)OCO3)cc1"
endpoint_value = 0.985

[[record]]
structure_string = "Nc1ccc(S(=O)(=O)c2ccc(N)cc2)cc1"
endpoint_value = 1


Now consider the entry below.
Find the recorded normalized growth belonging to CC(=O)NCc1c(I)c(NC(C)=O)c(I)c(C(=O)O)c1I and report it.
1.02
